MEASUREMENT DESCRIPTION: chemical genetic growth profiling, strain panel (AID 1159580);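 also: tested at 20 µM; growth read once vehicle control cultures reached saturation at 30 °C; 1 = growth at the plate median or of vehicle wells; lower values mean less growth of the strain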
CONDITION INFO: S. cerevisiae deletion strains, growth OD, locus YIL147C, strain SLN1, active compounds read low
About 2,000 (36%) of roughly 5,500 compounds were called active. About 18% were inconclusive and are not listed. Some of the results follow.
MEASURED QUANTITY: normalized growth
// response body must contain only the number

// query State the recorded normalized growth for this entry: `O=C(Nc1ccccc1Sc1ccc(C(F)(F)F)cc1[N+](=O)[O-])C(Cl)Cl`
// result 0.995

// query Same thing, different compound: `S=C(NCCc1csc2ccccc12)Nc1ccc(Cl)cc1`
// result 0.938

// query Likewise for `O=[N+]([O-])c1cc(C(F)(F)F)ccc1Sc1n[nH]c(-c2cc(Cl)cc(Cl)c2)n1` ?
// result 0.929

// query And `O=C(Nc1cc(Cl)cc(Cl)c1)c1cc(Br)ccc1O` ?
// result 0.945

// query Please give the result for CCOC(=O)C(O)(c1ccc(NC(=O)c2ccc(Cl)c(Cl)c2)cc1)C(F)(F)F (configuration not stated) too.
// result 0.986

// query Now this one: `S=C(NCc1cccs1)Nc1cc(Cl)cc(Cl)c1`
// result 0.949

// query And what about the compound CC1SC(c2cccnc2)N(c2ccc(F)cc2F)C1=O (configuration not stated) ?
// result 0.992

// query Now try `CCOC(=O)c1cnc(-c2ccccn2)[nH]c1=O` .
// result 0.935

// query Again, but for CC1SC(c2cccnc2)N(c2ccc(Cl)cc2)C1=O (configuration not stated)
// result 0.952

// query Quick one: `COC(=O)c1cc(I)c(OC(C)=O)c(I)c1`
// result 0.966

// query // next record `O=C(Nc1ccc(F)cc1)c1cc(Br)ccc1O`
// result 0.918

// query Next: `COc1ccc(OC)c2nc3c(nc12)C(=O)c1ccccc1-3`
// result 0.979
